These measurements were taken from PubChem BioAssay AID463074.

- Tested on: HMLE_sh_eGFP viability, CellTiter-Glo luminescence, 72 h
- Protocol summary: cytotoxicity in HMLE control line with eGFP shRNA, dose response, counter-screen for HMLE_sh_ECad selective toxicity project, cell-based, HMLE_sh_eGFP, luminescence (AID 463074);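 note: counterscreen control line to flag general toxicity for the HMLE_sh_ECad screen; potency for loss of viability as luminescence drops below DMSO wells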
Active and inactive are the calls of the source.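 Rule for the calls: active = AC50 no more than tenfold above the top dose tested, or full inhibition at every dose with a flat fit (cut at about 19 µM in these data); inconclusive = flat curve fit with inhibition between 30% and 70%, or poor fit; inactive = AC50 more than tenfold above the top dose tested.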
Outcome codes: Yes (active), No (inactive)

{"columns": ["Compound", "Cat"],
 "data": [
  ["Cn1nnnc1Sc1ncnc2scc(-c3ccc(Cl)cc3)c12", "Yes"],
  ["Clc1cccc(Nc2nc(-c3ccncc3)cs2)c1", "Yes"],
  ["O=C(NNC1=C(C(=O)C(F)(F)F)CCC1)c1ccc(Cl)cc1", "Yes"],
  ["CC(C)c1ccc(N2C(=O)NC(=O)/C(=C/C=C/c3ccco3)C2=O)cc1", "Yes"],
  ["CCC(C)n1c(O)c(/C=N/Nc2ccccc2)c(=O)[nH]c1=S (stereo unspecified)", "Yes"],
  ["O=C1C(C2=NC(c3ccccn3)C3C(=O)N(c4ccc(Cl)cc4Cl)C(=O)C23)=C(O)c2ccccc21 (stereo unspecified)", "No"],
  ["C=C(CC1([C@@H](NP(=O)(c2ccccc2)c2ccccc2)[C@H]2C[C@@H]2CCCC)CC1)c1ccccc1", "Yes"],
  ["CC(C)OC(=O)C(=O)NNc1ccccc1", "Yes"],
  ["CC1=[N+](C)c2ccc3ccccc3c2C1(C)C", "No"],
  ["CCS(=O)(=O)Nc1ccc(-c2cc(-c3ccccc3)c3cc(C)ccc3n2)cc1", "Yes"],
  ["COc1ccc(Nc2nnc(-c3ccccc3)c3ccccc23)cc1C(=O)N1CCCCC1", "No"]
]}

###

The reader will find reported AC50 values listed item by item below.
- System: HMLE_sh_eGFP viability, CellTiter-Glo luminescence, 72 h
- Protocol summary: cytotoxicity in HMLE control line with eGFP shRNA, dose response, counter-screen for HMLE_sh_ECad selective toxicity project, cell-based, HMLE_sh_eGFP, luminescence (AID 463074);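 note: counterscreen control line to flag general toxicity for the HMLE_sh_ECad screen; potency for loss of viability as luminescence drops below DMSO wells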
Reported metric: AC50

{"columns": ["Compound", "Test result"],
 "data": [
  ["CCOC(=O)c1c(NC(=O)C(c2ccccc2)c2ccccc2)sc2c1C1CCN2CC1", "2.84 µM"],
  ["CS(=O)(=O)c1ncc(Cl)c(C(=O)Nc2ccc(N3CCOCC3)cc2)n1", "6.81 µM"],
  ["C=CCn1c(CNc2ccccc2)nnc1SCC(=O)N/N=C/c1ccc(O)cc1O", "3.23 µM"],
  ["C=C(C)COc1ccc(-c2n[nH]c(C)c2-c2ccc(OC)c(OC)c2)c(O)c1", "2.65 µM"],
  ["O=c1cc(N2CCCCC2)c(-c2ccccc2)nn1Cc1ccccc1", "12 µM"],
  ["NC(=O)CC(NC(=O)Cc1cccc2ccccc12)c1ccc(NC2CCCCCCC2)c([N+](=O)[O-])c1 (stereo unspecified)", "12 µM"],
  ["COc1ccccc1CNC(=S)Nc1ccc2nc(N3CCN(C)CC3)cc(C)c2c1", "0.427 µM"],
  ["O=[N+]([O-])c1cc(C(F)(F)F)ccc1NCCc1c[nH]c2ccccc12", "4.16 µM"],
  ["CC(C)(C)c1ccc(C(=O)NC(=S)Nc2nc3c(s2)CCCC3)cc1", "2.18 µM"],
  ["CC(=O)NC(c1ccccc1)c1cc([N+](=O)[O-])c2cccnc2c1O (stereo unspecified)", "4.02 µM"],
  ["COCCNC(=O)NC1(C(F)(F)F)Oc2ccc(Cl)cc2O1 (stereo unspecified)", "17.6 µM"],
  ["Cc1cc(C)n(Cc2ccc(NC(=O)c3ccc(COc4ccccc4Br)cc3)cc2)n1", "3.03 µM"],
  ["CC(C)Oc1cccc(C(=O)NC(=S)Nc2ccccc2N2CCOCC2)c1", "13.9 µM"],
  ["CC(=O)Nc1ccc(NC(=O)CSc2ncc(C(=O)Nc3ccccc3)c(=O)n2C)cc1", "5.44 µM"],
  ["CCOC(=O)C1=C(N)Oc2cc(O)ccc2C1c1cccc(Cl)c1 (stereo unspecified)", "4.06 µM"],
  ["CC(C)c1ccc(/C=N/NC(=O)c2cccc(Cl)c2)cc1", "8.64 µM"],
  ["Cc1ccc(C)c(-c2csc(N)c2C(=O)OC(C)C)c1", "8.52 µM"],
  ["COc1ccc(/C=C(\\C#N)c2c[nH]c3ccccc23)cc1", "0.577 µM"],
  ["O=C1NC(=O)N(CCc2ccc(F)cc2)C(=O)/C1=C/C=C/c1ccccc1", "3.91 µM"],
  ["Cc1ccc(NNC(=O)c2cccs2)cc1Cl", "2.19 µM"],
  ["O=C(Nc1cc(S(=O)(=O)Nc2ccc(Cl)cc2)ccc1N1CCCCC1)c1ccc(F)cc1", "8.97 µM"]
]}
